target: Ehrlichia translocated factor-1 (Etf-1) (Ehrlichia chaffeensis, UniProt Q2GG12 1-380); test: fluorescence polarisation; conditions: both partners purified
Starred links: 1 amine or outer side, 2 acyl side, 3 side chain; linkers in the order of their positions; H or OH if unused. Positions of bridges follow the written chain, without caps; N, C: chain ends. Non-standard residues stand in square brackets, D forms with d. Trimesoyl = O=C(c1cc(C(=O)[*:2])cc(C(=O)[*:3])c1)[*:1]; Phe(3,4-Cl2) = N[C@@H](Cc1ccc(Cl)c(Cl)c1)C(=O)O; Phe(4-CF3) = N[C@@H](Cc1ccc(C(F)(F)F)cc1)C(=O)O; Phe(4-Cl) = N[C@@H](Cc1ccc(Cl)cc1)C(=O)O; Phe(4-F) = N[C@@H](Cc1ccc(F)cc1)C(=O)O; d2Nal = N[C@H](Cc1ccc2ccccc2c1)C(=O)O; hPhe = N[C@@H](CCc1ccccc1)C(=O)O; Dap = NC[C@H](N)C(=O)O; βAla = NCCC(=O)O
Below, each of the binders is paired with its reported Kd value.
Your answer is read as µM, so omit the unit and give the number.

YHQ[dP]S[dL][Dap][hPhe][d2Nal][dR]R[dR]R[Dap]-{βAla-βAla-Lys(FAM)} (linker N-7-14 via Trimesoyl; not fully specified (N-terminus)) [macrocyclic peptide B7-15, FAM-labelled]    3.4
YHQ[dA]S[dL][Dap]F[d2Nal][dR]R[dR]R[Dap]-{βAla-βAla-Lys(FAM)} (linker N-7-14 via Trimesoyl; not fully specified (N-terminus)) [macrocyclic peptide B7-3, FAM-labelled]    5.8
YHQ[dP]S[dL][Dap][Phe(4-F)][d2Nal][dR]R[dR]R[Dap]-{βAla-βAla-Lys(FAM)} (linker N-7-14 via Trimesoyl; not fully specified (N-terminus)) [macrocyclic peptide B7-18, FAM-labelled]    3
YHQ[dP]S[dL][Dap][Phe(4-Cl)][3‑(3-benzothienyl)‑D‑Ala][dR]R[dR]R[Dap]-{βAla-βAla-Lys(FAM)} (linker N-7-14 via Trimesoyl; not fully specified (N-terminus)) [macrocyclic peptide B7-22, FAM-labelled]    5.7
YHQ[dP]S[dL][Dap][Phe(3,4-Cl2)][d2Nal][dR]R[dR]R[Dap]-{βAla-βAla-Lys(FAM)} (linker N-7-14 via Trimesoyl; not fully specified (N-terminus)) [macrocyclic peptide B7-19, FAM-labelled]    1.6

Recorded Kd for YHQ[dP]S[dL][Dap][Phe(4-CF3)][d2Nal][dR]R[dR]R[Dap]-{βAla-βAla-Lys(FAM)} (linker N-7-14 via Trimesoyl; not fully specified (N-terminus)) [macrocyclic peptide B7-20, FAM-labelled] , please?
1.8

Consider next the binder YHA[dP]S[dL][Dap]F[d2Nal][dR]R[dR]R[Dap]-{βAla-βAla-Lys(FAM)} (linker N-7-14 via Trimesoyl; not fully specified (N-terminus)) [macrocyclic peptide B7-4, FAM-labelled] in the same way.
7.4
